Numbers sourced from the DeepSol protein solubility set.

- assay overview: soluble on expression in E. coli; label from the status in PepcDB or PDB records

{"entry sequence": "MSLDNLNLIVSLKDGGLLHFKRDEELGEINVFNFQEQGTLIPFLGFFGSGKQKDVVLDGVSSNSIVDALQIGGSGVVITLSVNKVLKLWNLDGHQNLSSLTIASDDNTWLPTIPSKYLKSYDQEDGKTIITLFINTKSGDSSKSMFVFKSFELESSNLHDLSDLSFQPELPNSLLFSSDVFYHESNFQNTIWFIQDYEVVGFGTSQLKYYILWKSNTSSILVEYTINPVNGAILSEGHHHHHH", "soluble on expression in E. coli": "not soluble"}
{"entry sequence": "MRGKLDLGEQPLVLIWEVTQACELACKHCRADAQPRRHPDELSTAEGKALLDQASEFGDGQLVVLSGGDPLARGDLPELVEYGTEQGLRMTLTPSGTNSITPERLAELDDAGLRRLALSIDGGDSDAHDTFRGESGSFEATMAAAEAARNLDIPLQINTTVCAETVEQLPAIRDLVADLDAVLWSVFFLVPVGRGRVLTPIDPERAERVLKWLHEVSDEASFGLKTTEAPHYRRVAMEQQDEGASGLKRRMGIRAGKGFAFVSHTGEVFPSGFLPKSAGSVREESVVDIYRDSPLFQQLRDDDALTGKCGACRYRTVCGGSRSRAYATTGDPLAADPLCDYRPDGFEGSVPDQHPAD", "soluble on expression in E. coli": "not soluble"}

---

- assay overview: soluble on expression in E. coli; label from the status in PepcDB or PDB records
measurement type: soluble on expression in E. coli

Consider the reported soluble on expression in E. coli for these sequences:
{"entry sequence": "MSLSLRRIDHVSLRVRDVEEASRRWSAQFGLAVRERDGRRARLACDDEPYCLELLAAEAPGVEHVAYELRRSCTLEEAGRHFEGLGVPYEEHAGGLRVADPDGNRVLVLPYREPRERWVSHARAATDQIVGHPRRLGHVNFLTGRLSEGVEFYTRALGMRITDWLGEGGVWFHINADHHVMALVDKGYPHFHHLAFDVVDIGQMRVALDHLGRHGRWLGWGPVRHGIGGNIASYVRIVEEECFVELYCDMEQLEADHEVRRWPDNRFSSNTWGPLPPRSYFRFDEAAVASERESLEMLGHPLKEEVSSEGHHHHHH", "soluble on expression in E. coli": "soluble"}
{"entry sequence": "MSLIAHSNEIARPIFKSQDQLFTLYQGDCNEVLPQFENQFDLIFADPPYFLSNDGLSIQSGKIVSVNKGDWDKEDGINGIDEFNYQWINNAKKALKDTGSLLISGTYHNIFSLGCVLQKLDFKILNLITWQKTNPPPNFSCRYLTHSAEQIIWARKSRKHKHVFNYEVLKKINNDKQMRDVWSFPAIAPWEKVNGKHPTQKPLALLVRLLLMASDENSLIGDPFSGSSTTGIAANLLKREFIGIEKESEFIKISMDRKIELDARYKEIRSKIKDLNHQEGHHHHHH", "soluble on expression in E. coli": "not soluble"}
{"entry sequence": "MNTPRIPIASHQAVMRCLRDKLQQANLTLQTDYTEPAVSYQQRGATAGTAWLQHWEIRLNPVLLQENQQTFIDEVVPHELAHLLVYARFGRVAPHGKEWRWMMENVLHVPAKRTHRFAVQSVQGKTFTYLCDCQRHELTIRRHNRVLRGETEYRCRRCGKTLRHDVKSSILEHHHHHH", "soluble on expression in E. coli": "soluble"}
{"entry sequence": "MTSFTGITAVANATNEMAMFKQAMKEVAAHPEWMSSRQIERQRWNPYSMEGGSTCAISGENFAIVASDTRMTQNDINILTRDAEKIQILNDNIILTTSGFYGDVLQLKKVLQSRLHKYRFDYRSDMSVDLCAELLSRNLYYRRFFPYYTGAILAGIDEHGKGAVFSYDPIGCIERLGYSASGAAEPMIIPFLDCQIGHVTLSEGYERPELTLDRAISLMKDSFRGAAEREISTGDKIHLVIAEAGKPVVVKFLPLRED", "soluble on expression in E. coli": "not soluble"}
{"entry sequence": "MSLSAPYRKQIISNAHNKPSLFSKIKTFFTQKDSARVSPRNNVANKQPRNESFNRRISSMPGGYFHSEISPDSTVNRSVVVSAVGEARNDIENKEEEYDETHETNISNAKLANFFSKKGNEPLSEIEIEGVMSLLQKSSKSMITSEGHHHHHH", "soluble on expression in E. coli": "soluble"}

[ask] // lookup soluble on expression in E. coli for `MKIMGFYSQVILPRLLDWSLSDPTLATYRQELLTDVTGEVLEIGFGTGLNLAYYPSHIHKITTVDVNPGMNTIAQKRIDDSGIKVQQLLLSGENLPMADNTFDSVVSTWTLCSIANVEQALQEVYRVLKPGGKFFFLEHGLSNKPNVQVWQNRLTPIQKVLADGCHLNRNIQQLVEQSFDHVELKRFTPENFPDLMAHFYKGCATKKSILEHHHHHH`
[reply] soluble

[ask] Follow-up item: `MTSESSGNTGGAMDEPTEKKPKEFSDLPDHVLQRIMEKVEPSDRLSVRKVNRNLRQLIDEMDPGFRSISVNISTRKGVLVSYDNGSFIHYQQVYDDCEMFGRKEKKRFFNENAVKMAINDVIRVMSHPMSNVKLFRTGIPTKPEMERSRSTGKQWKRAKILCANRGFMEVSMKHLCHFSRVVVNQARTSMQTAIEIRDILLKSTSIEYVDFCSRDGVTIDAVRVFIPETANVNQTTDYDNFTFSSSMCSLNFKKKR`
[reply] not soluble

[ask] What do you get for `DLKDPIKISIPRYVLCGQGKDAHFEFEVKITVLDETWTVFRRYSRFREMHKTLKLKYAELAALEFPPKKLFGNKDERVIAERRSHLEKYLRDFFSVMLQSATSPLHINKVGLTLSKHTICEFSPFFKKGVFDYS` ?
[reply] soluble

[ask] Subsequent entry: `MIQFKNISKHYQLKGQTIHALDQINLDIPAGSIFGIIGYSGAGKSTLIRLINLLERPTHGQIIINQKDFTALNAQSLRQERANIGMIFQHFNLLQTKTVAANIEMPLKLLGYSKIEREKRLMELLDFIDLTHKKDAFPDELSGGQKQRVGIARALANHPKILLCDEATSALDPQTTKSVLALLKKINKEQGITIVMVTHEMDVIESICDHVAVMESGHVIETGPTVEIFSNPQHPTTKTFIQTVLQQHLPVNILSKLEHQHHHSIYRLQFLGKSAQEPVIQSMIKQFDISLNILFANMTEIDGTVIGQMFVQLLGDDTLIQQAIEFLERHGVSVNQSGEQV`
[reply] not soluble

[ask] # iterate: `MKKKLVGVECLNEYICQSSNKLYADSSVILTPGARDELSRRGVTVVYGPRPESGEAPAACPPGCTCPACTAAKADSGLEQLLFAVAAMLKTEYGITDPEELKNLSCQALRTIKANL`
[reply] not soluble

[ask] Another sequence to look at: `MRDYSELEIFEGNPLDKWNDIIFHASKKLSKKELERLLELLALLETFIEKEDLEEKFESFAKALRIDEELQQKIESRKTDIVIQSMANILSGSGSGSGSSGNPLDKWNDIIFHASKKLSKKELERLLELLALLETFIEKEDLEEKFESFAKALRIDEELQQKIESRKTDIVIQSMANILSGLEHHHHHH`
[reply] soluble

[ask] Next entry: `MGSSHHHHHHSSGLVPRGSHMGVKSLVPQELIEKIKLISPGTELRKALDDIINANFGALIFLVDDPKKYEDVIQGGFWLDTDFSAEKLYELSKMDGAIVLSEDITKIYYANVHLVPDPTIPTGETGTRHRTAERLAKQTGKVVIAVSRRRNIISLYYKNYKYVVNQVDFLISKVTQAISTLEKYKDNFNKLLSELEVLELENRVTLADVVRTLAKGFELLRIVEEIRPYIVELGEEGRLARMQLRELTEDVDDLLVLLIMDYSSEEVEEETAQNILQDFITRREPSPISISRVLGYDVQQAAQLDDVLVSARGYRLLKTVARIPLSIGYNVVRMFKTLDQISKASVEDLKKVEGIGEKRARAISESISSLKHRKTSE`
[reply] soluble
